molecular target: purified human IDO protein (Homo sapiens); construct: 2 extra amino acids (linker from the BglII cloning site of pQE70); made in house; host or cells: E. coli M15(pREP4) with plasmid pQE70-hIDO; experiment: Enzymatic IDO assay (kynurenine production, absorbance at 480 nm); assay type: biochemical; conditions: recombinant human IDO; values reported in ranges; read-out: hIDO IC50
Sequence (P14902 whole entry P110S/E119G): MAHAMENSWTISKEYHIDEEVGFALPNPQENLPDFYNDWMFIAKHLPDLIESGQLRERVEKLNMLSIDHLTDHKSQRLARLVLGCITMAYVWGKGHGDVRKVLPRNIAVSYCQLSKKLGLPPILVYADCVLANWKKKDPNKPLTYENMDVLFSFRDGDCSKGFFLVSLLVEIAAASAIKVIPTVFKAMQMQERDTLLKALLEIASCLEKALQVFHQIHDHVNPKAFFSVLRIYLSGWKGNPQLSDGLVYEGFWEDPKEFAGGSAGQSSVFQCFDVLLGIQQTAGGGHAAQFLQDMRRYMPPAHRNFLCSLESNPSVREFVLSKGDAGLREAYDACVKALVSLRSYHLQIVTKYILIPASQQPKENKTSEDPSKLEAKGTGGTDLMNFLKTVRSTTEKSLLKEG
Entries and their IC50 values follow.

| molecule | target-system | IC50 |
| --- | --- | --- |
| O=C(Cc1cccc([N+](=O)[O-])c1)Nc1ccc(CCOc2ccccc2-c2c[nH]cn2)cc1 [compound 1241] | purified human IDO protein (Homo sapiens) | 1 to 10 µM |
| O=C(CC1CCCO1)Nc1ccc(CCOc2ccccc2-c2c[nH]cn2)cc1 (centres unmarked) [compound 1199] | purified human IDO protein (Homo sapiens) | 1 to 10 µM |
| c1cc(-c2c[nH]cn2)c2[nH]ccc2c1 [compound 948, 7-(1H-imidazol-4-yl)-1H-indole] | purified human IDO protein (Homo sapiens) | 10 to 100 µM |
| O=C(Cc1ccccc1)Nc1ccc(CCOc2ccccc2-c2c[nH]cn2)cn1 [compound 1228] | purified human IDO protein (Homo sapiens) | 1 to 10 µM |
| CC(CC1CCCCC1)Oc1ccccc1-c1c[nH]cn1 (centres unmarked) [compound 1044] | purified human IDO protein (Homo sapiens) | 10 to 100 µM |
| CC(=O)Nc1ccc(CCOc2cccc(O)c2-c2cnc[nH]2)cc1 [compound 1232] | purified human IDO protein (Homo sapiens) | 10 to 100 µM |
| Nn1cncc1-c1ccccc1 [compound 1115, 5-phenyl-1H-imidazol-1-amine] | purified human IDO protein (Homo sapiens) | > 100 µM |
| O=C(Nc1ccc(CCOc2ccccc2-c2c[nH]cn2)c(Cl)c1)NC1CCOCC1 [compound 1265] | purified human IDO protein (Homo sapiens) | < 1 µM |

Hello, the source for this data is patent US8722720B2, in case you need it.
